System: SYO-1 complex spheroid growth, percent test/control
Assay: Anticancer human tumor SYO-1 cell line growth inhibition [Asc];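 further: compound exposure lasted 7 days after spheroids grew 3 days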
Settings: curve of first compound; second compound 0.1 µM
measured.parameter: IC50 (µM)
Give just the numeric value; µM need not be written.

For the molecule O=C(c1cc(Cc2n[nH]c(=O)c3ccccc23)ccc1F)N1CCN(C(=O)C2CC2)CC1 + CNC(C)C(=O)NC1CN(S(=O)(=O)c2cccc(S(=O)(=O)N3CCC4CCC(C(=O)NC(c5ccccc5)c5ccccc5)N4C(=O)C(NC(=O)C(C)NC)C3)c2)CCC2CCC(C(=O)NC(c3ccccc3)c3ccccc3)N2C1=O , give its reported IC50.
4.37

###

System: SYO-1 complex spheroid growth, percent test/control
Assay: Anticancer human tumor SYO-1 cell line growth inhibition [Asc];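 further: compound exposure lasted 7 days after spheroids grew 3 days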
Settings: curve of first compound; second compound 0.1 µM
pIC50: −log10 of the molar value.
measured.parameter: pIC50

These solved cases illustrate the format of a correct answer.
1) C=CC(=O)N1CCN(c2nc(=O)n(-c3c(C)ccnc3C(C)C)c3nc(-c4c(O)cccc4F)c(F)cc23)C(C)C1 (stereo not drawn) + Cc1c(S(C)(=O)=O)c(-c2cc(F)cc(N3CCN(c4ccc(NS(=O)(=O)c5ccc(NC(CCN6CCC(C(=O)OCCCP(=O)(O)O)CC6)CSc6ccccc6)c(S(=O)(=O)C(F)(F)F)c5)cc4)CC3)c2)c(-c2ccc(Cl)cc2)n1C(C)C | < 5.00
2) COc1c(OCCCN2CCOCC2)ccc2c3n(c(=NC(=O)c4cnc(N)nc4)nc12)CCN3 + CNC(C)C(=O)NC1CN(S(=O)(=O)c2cccc(S(=O)(=O)N3CCC4CCC(C(=O)NC(c5ccccc5)c5ccccc5)N4C(=O)C(NC(=O)C(C)NC)C3)c2)CCC2CCC(C(=O)NC(c3ccccc3)c3ccccc3)N2C1=O | < 6.00

Then this molecule:
Enter measured pIC50, system SYO-1 complex spheroid growth, percent test/control, for the molecule shown: Cn1ncnc1[C@H]1c2n[nH]c(=O)c3cc(F)cc(c23)N[C@@H]1c1ccc(F)cc1 + Cc1c(S(C)(=O)=O)c(-c2cc(F)cc(N3CCN(c4ccc(NS(=O)(=O)c5ccc(NC(CCN6CCC(C(=O)OCCCP(=O)(O)O)CC6)CSc6ccccc6)c(S(=O)(=O)C(F)(F)F)c5)cc4)CC3)c2)c(-c2ccc(Cl)cc2)n1C(C)C
7.74

###

compounds and their reported viability, T/C
System: SYO-1 complex spheroid growth, percent test/control
Experiment: Anticancer human tumor SYO-1 cell line growth inhibition [Asc];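 further: compound exposure lasted 7 days after spheroids grew 3 days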;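 on viability, T/C: 100% = DMSO vehicle control viability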
Conditions: second compound 0.1 µM; first compound 0.316 µM; stronger effect = lower value

1) O=C(c1ccc(F)c(F)c1Nc1ccc(I)cc1F)N1CC(O)([C@@H]2CCCCN2)C1 + Cc1c(S(C)(=O)=O)c(-c2cc(F)cc(N3CCN(c4ccc(NS(=O)(=O)c5ccc(NC(CCN6CCC(C(=O)OCCCP(=O)(O)O)CC6)CSc6ccccc6)c(S(=O)(=O)C(F)(F)F)c5)cc4)CC3)c2)c(-c2ccc(Cl)cc2)n1C(C)C | 103%
2) C#Cc1c(F)ccc2cc(O)cc(-c3ncc4c(N5CC6CCC(C5)N6)nc(OCC56CCCN5CC(F)C6)nc4c3F)c12 (stereo unspecified) + Cc1c(S(C)(=O)=O)c(-c2cc(F)cc(N3CCN(c4ccc(NS(=O)(=O)c5ccc(NC(CCN6CCC(C(=O)OCCCP(=O)(O)O)CC6)CSc6ccccc6)c(S(=O)(=O)C(F)(F)F)c5)cc4)CC3)c2)c(-c2ccc(Cl)cc2)n1C(C)C | 90.6%
3) CCN1CCN(Cc2ccc(Nc3ncc(F)c(-c4cc(F)c5nc(C)n(C(C)C)c5c4)n3)nc2)CC1 + Cc1c(S(C)(=O)=O)c(-c2cc(F)cc(N3CCN(c4ccc(NS(=O)(=O)c5ccc(NC(CCN6CCC(C(=O)OCCCP(=O)(O)O)CC6)CSc6ccccc6)c(S(=O)(=O)C(F)(F)F)c5)cc4)CC3)c2)c(-c2ccc(Cl)cc2)n1C(C)C | 116%
4) C=CC(=O)N1CCN(c2nc(=O)n(-c3c(C)ccnc3C(C)C)c3nc(-c4c(O)cccc4F)c(F)cc23)C(C)C1 (stereo unspecified) + Cc1c(S(C)(=O)=O)c(-c2cc(F)cc(N3CCN(c4ccc(NS(=O)(=O)c5ccc(NC(CCN6CCC(C(=O)OCCCP(=O)(O)O)CC6)CSc6ccccc6)c(S(=O)(=O)C(F)(F)F)c5)cc4)CC3)c2)c(-c2ccc(Cl)cc2)n1C(C)C | 93.4%
5) C=CC(=O)N1CCN(c2nc(=O)n(-c3c(C)ccnc3C(C)C)c3nc(-c4c(O)cccc4F)c(F)cc23)C(C)C1 (stereo unspecified) + CNC(C)C(=O)NC1CN(S(=O)(=O)c2cccc(S(=O)(=O)N3CCC4CCC(C(=O)NC(c5ccccc5)c5ccccc5)N4C(=O)C(NC(=O)C(C)NC)C3)c2)CCC2CCC(C(=O)NC(c3ccccc3)c3ccccc3)N2C1=O | 100%

For the compound O=C(c1ccc(F)c(F)c1Nc1ccc(I)cc1F)N1CC(O)([C@@H]2CCCCN2)C1 + CNC(C)C(=O)NC1CN(S(=O)(=O)c2cccc(S(=O)(=O)N3CCC4CCC(C(=O)NC(c5ccccc5)c5ccccc5)N4C(=O)C(NC(=O)C(C)NC)C3)c2)CCC2CCC(C(=O)NC(c3ccccc3)c3ccccc3)N2C1=O , give its reported viability, T/C.
96.9%
